- EXPERIMENTAL SYSTEM: CSF1R phosphorylation in THP-1 cells (Homo sapiens (Human))
- Sequence (P07333 20-972): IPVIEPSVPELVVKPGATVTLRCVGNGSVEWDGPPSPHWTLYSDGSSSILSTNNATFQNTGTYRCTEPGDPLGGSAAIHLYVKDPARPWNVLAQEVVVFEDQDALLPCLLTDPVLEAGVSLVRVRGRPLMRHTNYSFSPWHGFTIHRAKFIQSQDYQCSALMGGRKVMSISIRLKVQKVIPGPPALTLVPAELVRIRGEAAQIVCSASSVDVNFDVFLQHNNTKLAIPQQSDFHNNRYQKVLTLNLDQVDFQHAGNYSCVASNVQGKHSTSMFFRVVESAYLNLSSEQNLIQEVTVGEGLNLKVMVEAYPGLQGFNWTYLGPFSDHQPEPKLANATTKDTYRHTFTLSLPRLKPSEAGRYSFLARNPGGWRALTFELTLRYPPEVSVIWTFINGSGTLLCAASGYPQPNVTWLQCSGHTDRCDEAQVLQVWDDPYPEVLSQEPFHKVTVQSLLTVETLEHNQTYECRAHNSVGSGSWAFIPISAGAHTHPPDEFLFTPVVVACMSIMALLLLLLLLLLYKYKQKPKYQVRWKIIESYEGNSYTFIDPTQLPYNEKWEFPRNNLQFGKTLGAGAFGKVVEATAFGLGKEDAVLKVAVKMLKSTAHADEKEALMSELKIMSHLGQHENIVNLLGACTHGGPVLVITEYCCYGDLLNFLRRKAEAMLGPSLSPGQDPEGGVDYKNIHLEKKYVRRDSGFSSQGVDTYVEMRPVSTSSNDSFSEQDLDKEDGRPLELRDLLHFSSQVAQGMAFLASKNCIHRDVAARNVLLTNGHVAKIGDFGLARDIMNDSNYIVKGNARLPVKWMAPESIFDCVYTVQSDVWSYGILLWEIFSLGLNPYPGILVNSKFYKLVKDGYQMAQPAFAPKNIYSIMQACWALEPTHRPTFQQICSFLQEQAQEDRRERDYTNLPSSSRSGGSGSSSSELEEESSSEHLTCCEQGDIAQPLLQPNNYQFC
- PROTOCOL SUMMARY: Detection of CSF1R phosphorylation activity at cell level (THP-1, M-CSF stimulated, ELISA)
- CONDITIONS: p-CSF1R ELISA, compound 60 min, 300 ng/mL M-CSF 1 min
ENDPOINT NAME: pIC50
Would you please state pIC50, meaning minus log10 of the concentration in mol/L, as a bare number?

[[record]]
compound = "CCn1cc(-c2cc(Oc3ccc(NC(=O)c4cnc(C)n(C)c4=O)nc3)ccn2)cn1"
measured_result = 8.15

[[record]]
compound = "Cn1ccc(Nc2cc(Oc3ccc(NC(=O)c4cnc5n(c4=O)CCC5)nc3)ccn2)n1"
measured_result = 8.52

[[record]]
compound = "Cc1cc(Nc2cc(Oc3ccc(NC(=O)c4cnc(C)n(C)c4=O)nc3)ccn2)n[nH]1"
measured_result = 8.00

[[record]]
compound = "Cc1ccc(C(=O)Nc2ccc(Oc3ccnc(-c4cnn(C)c4)c3)cn2)c(=O)n1C"
measured_result = 8.05


Query: Could you tell me which pIC50 is on file for Cn1ncc(-c2cc(Oc3ccc(NC(=O)c4cccn(C)c4=O)nc3)ccn2)n1 ?
Reply: 6.13

Query: Could you tell me which pIC50 is on file for Cc1ncc(-c2cc(Oc3ccc(NC(=O)c4cccn(C)c4=O)nc3)ccn2)s1 ?
Reply: 7.46

Query: Could you tell me which pIC50 is on file for Cc1ncc(C(=O)Nc2ccc(Oc3ccnc(-c4ccccc4)c3)cn2)c(=O)n1C ?
Reply: 7.17

Query: Could you tell me which pIC50 is on file for Cc1ncn(C)c(=O)c1C(=O)Nc1ccc(Oc2ccnc(-c3cnn(C)c3)c2)cn1 ?
Reply: 7.38

Query: Could you tell me which pIC50 is on file for Cn1cc(Nc2cc(Oc3ccc(NC(=O)c4cccn(C)c4=O)nc3)ccn2)cn1 [Compound 97] ?
Reply: 8.15

Query: Could you tell me which pIC50 is on file for [2H]C([2H])([2H])n1cc(-c2cc(Oc3ccc(NC(=O)c4cnc(C)n(C)c4=O)nc3)ccn2)cn1 ?
Reply: 8.15

Query: Could you tell me which pIC50 is on file for Cc1ncc(C(=O)Nc2ccc(Cc3ccnc(-c4cnn(C)c4)c3)cn2)c(=O)n1C ?
Reply: 7.80

Query: Could you tell me which pIC50 is on file for Cc1nc(-c2cc(Oc3ccc(NC(=O)c4cnc(C)n(C)c4=O)nc3)ccn2)cs1 ?
Reply: 7.68

Query: Could you tell me which pIC50 is on file for Cc1ncc(C(=O)Nc2ccc(Oc3ccnc(-c4cnn(C(F)F)c4)c3)cn2)c(=O)n1C ?
Reply: 7.85

Query: Could you tell me which pIC50 is on file for Cc1cc(Oc2ccnc(-c3cnn(C)c3)c2)cnc1NC(=O)c1cccn(C(C)C)c1=O ?
Reply: 7.23

Query: Could you tell me which pIC50 is on file for Cn1cc(-c2cc(Oc3ccc(NC(=O)c4ccc(N)n(C)c4=O)nc3)ccn2)cn1 ?
Reply: 7.16

Query: Could you tell me which pIC50 is on file for CC(C)n1nccc(C(=O)Nc2ccc(Oc3ccnc(-c4ccn(C)c4)c3)cn2)c1=O ?
Reply: 7.52

Query: Could you tell me which pIC50 is on file for Cc1ncc(C(=O)Nc2ccc(Oc3cc(-c4cnn(C)c4)ncn3)cn2)c(=O)n1C ?
Reply: 7.96

Query: Could you tell me which pIC50 is on file for CNc1ccc(C(=O)Nc2ccc(Oc3ccnc(-c4cnn(C)c4)c3)cn2)c(=O)n1C ?
Reply: 8.00

Query: Could you tell me which pIC50 is on file for Cc1ncc(C(=O)Nc2ccc(Oc3ccnc(-c4ccc(F)cc4)c3)cn2)c(=O)n1C ?
Reply: 7.27

Query: Could you tell me which pIC50 is on file for Cc1ncc(C(=O)Nc2ccc(Oc3ccnc(-c4cccs4)c3)cn2)c(=O)n1C ?
Reply: 7.68

Query: Could you tell me which pIC50 is on file for Cn1cc(-c2cc(Oc3ccc(NC(=O)c4cccn(C)c4=O)nc3)ccn2)cn1 ?
Reply: 8.30

Query: Could you tell me which pIC50 is on file for Cc1ncc(C(=O)Nc2ccc(Oc3ccnc(-c4ccncc4)c3)cn2)c(=O)n1C ?
Reply: 7.72

Query: Could you tell me which pIC50 is on file for Cn1nccc1Nc1cc(Oc2ccc(NC(=O)c3cnc4n(c3=O)CCC4)nc2)ccn1 ?
Reply: 8.52

Query: Could you tell me which pIC50 is on file for COc1ccc(C(=O)Nc2ccc(Oc3ccnc(-c4cnn(C)c4)c3)cn2)c(=O)n1C ?
Reply: 7.20

Query: Could you tell me which pIC50 is on file for Cn1cc(Nc2cc(Oc3ccc(NC(=O)c4cc(F)cn(C)c4=O)nc3)ccn2)cn1 ?
Reply: 7.96

Query: Could you tell me which pIC50 is on file for [2H]C([2H])([2H])n1c(C)ncc(C(=O)Nc2ccc(Oc3ccnc(-c4cnn(C)c4)c3)cn2)c1=O ?
Reply: 8.22

Query: Could you tell me which pIC50 is on file for CC(C)n1cccc(C(=O)Nc2ccc(Oc3ccnc(-c4ccn(C)c4)c3)cn2)c1=O ?
Reply: 7.62

Query: Could you tell me which pIC50 is on file for Cc1ncc(C(=O)Nc2ccc(Oc3ccnc(-c4cnn(C)c4)n3)cn2)c(=O)n1C ?
Reply: 7.60

Query: Could you tell me which pIC50 is on file for CC(C)n1cccc(C(=O)Nc2ccc(Oc3ccnc(-c4ncn(C)n4)c3)cn2)c1=O ?
Reply: 6.67

Query: Could you tell me which pIC50 is on file for Cc1ncc(C(=O)Nc2ccc(Oc3ccnc(-c4cn(C)cn4)c3)cn2)c(=O)n1C ?
Reply: 7.85

Query: Could you tell me which pIC50 is on file for CC(C)n1cccc(C(=O)Nc2ccc(Oc3ccnc(-c4cnn(C)c4)c3)cc2F)c1=O ?
Reply: 6.96
